# assay.procedure: Saturation solubility of DTX in the solution-filled reservoir
# Format: physicochemical
# condition.set: 40 mg/ml BSA solution in PBS inside the device reservoir, aqueous buffer, thermodynamic from solid; solid DTX dissolved by BSA solution in PBS inside the reservoir, 37° C.
reported.endpoint: solubility

For record CC(=O)O[C@@]12CO[C@@H]1C[C@H](O)[C@@]1(C)C(=O)[C@H](O)C3=C(C)[C@@H](OC(=O)[C@H](O)[C@@H](NC(=O)OC(C)(C)C)c4ccccc4)C[C@@](O)([C@@H](OC(=O)c4ccccc4)[C@H]21)C3(C)C [DTX, docetaxel] the listed solubility is ~5 µg/mL
